// data source = ChEMBL document CHEMBL5647683

- method summary: AUC(0-24hrs) in human HT-29 cells xenografted athymic NMRI-nu/nu female mouse at 20 mg/kg, po administered daily for 25 days by LC-MS-MS method
- Assay type: ADME, organism-based
- cond: in vivo, time 25 day
measurement kind: AUC at 600 h (µM·h)
Answers are plain numbers, in µM·h.

[in] Give recorded AUC at 600 h. CN(C)C/C=C/C(=O)Nc1cc2c(Nc3ccc(F)c(Cl)c3)ncnc2cc1O[C@H]1CCOC1
[out] 5.06

###

- method summary: Cmax in human NCI-N87 cells xenografted athymic NMRI-nu/nu female mouse at 20 mg/kg, po administered daily for 25 days by LC-MS-MS method
- Type: ADME, organism-based
- cond: in vivo, time 25 day
measurement kind: Cmax (nM)
One number for each entry, in nM.

[in] Give recorded Cmax. CN(C)C/C=C/C(=O)Nc1cc2c(Nc3ccc(F)c(Cl)c3)ncnc2cc1O[C@H]1CCOC1
[out] 80
